Target: T1, rat CaSR (rCaSR) (Rattus norvegicus, UniProt P48442)
T1 construct: mGlu5 signal peptide (N); expressed in transfected cells; host or cells: HEK293A, transient transfection
T1 sequence (P48442 20-1079): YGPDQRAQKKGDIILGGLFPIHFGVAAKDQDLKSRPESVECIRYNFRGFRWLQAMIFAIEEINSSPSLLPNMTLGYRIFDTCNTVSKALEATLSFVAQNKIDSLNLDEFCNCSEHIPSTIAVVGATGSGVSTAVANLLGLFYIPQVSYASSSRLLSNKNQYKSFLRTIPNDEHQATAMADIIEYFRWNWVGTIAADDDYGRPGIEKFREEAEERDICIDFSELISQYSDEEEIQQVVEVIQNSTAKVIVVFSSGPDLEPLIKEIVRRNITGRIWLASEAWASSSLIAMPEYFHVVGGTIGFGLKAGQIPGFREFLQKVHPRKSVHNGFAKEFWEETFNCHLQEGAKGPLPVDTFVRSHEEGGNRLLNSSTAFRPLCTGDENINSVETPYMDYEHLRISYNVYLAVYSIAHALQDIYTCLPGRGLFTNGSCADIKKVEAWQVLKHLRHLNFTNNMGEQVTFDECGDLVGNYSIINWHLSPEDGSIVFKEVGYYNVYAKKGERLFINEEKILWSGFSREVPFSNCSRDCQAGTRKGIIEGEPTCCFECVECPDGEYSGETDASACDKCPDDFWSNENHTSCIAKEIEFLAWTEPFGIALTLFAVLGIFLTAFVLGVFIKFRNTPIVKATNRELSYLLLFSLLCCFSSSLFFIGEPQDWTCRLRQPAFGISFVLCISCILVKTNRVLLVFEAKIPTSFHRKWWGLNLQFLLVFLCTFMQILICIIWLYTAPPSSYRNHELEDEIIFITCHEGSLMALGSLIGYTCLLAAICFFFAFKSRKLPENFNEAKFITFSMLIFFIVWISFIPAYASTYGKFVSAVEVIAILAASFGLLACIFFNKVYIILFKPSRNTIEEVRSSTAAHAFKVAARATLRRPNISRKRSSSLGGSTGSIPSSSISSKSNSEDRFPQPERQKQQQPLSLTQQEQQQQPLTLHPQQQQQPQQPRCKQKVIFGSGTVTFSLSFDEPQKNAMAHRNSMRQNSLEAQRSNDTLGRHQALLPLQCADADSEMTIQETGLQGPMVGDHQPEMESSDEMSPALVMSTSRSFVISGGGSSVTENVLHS
Assay: IP1 accumulation assay, HEK293A cells transiently transfected with HA-rCaSR WT
Assay type: cell-based
Details: IP1 accumulation at EC20 Ca2+
Procedure: The rat and human CaSR orthologs have an overall sequence identity of 93.6% and an ECD sequence identity of 95.7% (SEQ ID NO:1 aligned with SEQ ID NO:2). Thus, differences in CaSR nanobody activity are unlikely to be observed. […] Inositol monophosphate (IP1) accumulation was measured using the commercially available HTRF® IP1 accumulation kit (Cisbio Bioassays, Codolet, France) and an EnVision multimode plate reader (PerkinElmer, Waltham, Mass., USA). […]
Measured Max. response (fold over basal ± S.E.M.), rat ortholog values are reported for all entries that follow.
State the answer as a number, implicitly in fold over basal.

Nb11: llama-derived CaSR-specific nanobody acting as PAM, SEQ ID NO:6 (protein, CaSR Nb11) VHH: QVQLVESGGGLVQAGGSLRLSCAASGRTFSTYRMGWFRQGPGKEREFVAAITATGVKTYYTDSVKGRFTISRDNAKNTVYLQMNSVQPEDTAVYSCAARIKAIFTAQQAATITDYDYWGQGTQVTVSS
2.90

Moving on to the next molecule.
Enquiry: What does the data say about its Max. response (fold over basal ± S.E.M.), rat ortholog? Entry: Nb2: llama-derived CaSR-specific nanobody acting as PAM, SEQ ID NO:9 (protein, CaSR Nb2) VHH: QVQLVESGGGLVQAGSSLRLSCAASGRTFSNYRMAWFRQAPGKEREFVAVISRGGGGADYADSVKGRFTISRDNVKNTVSLQMNSLKPEDTAVYFCAARISGFSYYTSVDRYDYWGQGTQVTVSS
Return: 3.01
